TEST METHOD NOTES: Bioavailability in mouse at 9.68 mg/kg, po
Assay type: ADME, organism-based
REPORTED CONDITIONS: in vivo
MEASUREMENT LABEL: bioavailability

>>> measured_value("O=C(NCCCCCCNC(=O)NS(=O)(=O)c1cccc(Cl)c1)NS(=O)(=O)c1cccc(Cl)c1")
"108%"

---

TARGET OR SYSTEM: Fructose-1,6-bisphosphatase 1 (Homo sapiens)
TEST METHOD NOTES: Inhibition of human liver fructose-1,6-bisphosphatase in presence of fructose-2,6-bisphosphate
pIC50: −log10 of the molar value.
Reported pIC50 values follow for various compounds
MEASUREMENT LABEL: pIC50

>>> measured_value("CCCCNC(=O)NS(=O)(=O)c1cccc(C)c1")
4.06
>>> measured_value("Cc1cccc(S(=O)(=O)NC(=O)NCCCCNC(=O)NS(=O)(=O)c2cccc(C)c2)c1")
6.27
>>> measured_value("O=C(NCc1ccc(CNC(=O)NS(=O)(=O)c2cccc(Cl)c2)cc1)NS(=O)(=O)c1cccc(Cl)c1")
8.40
>>> measured_value("CCCNC(=O)NS(=O)(=O)c1cccc(Cl)c1")
3.63

---

Reported pIC50 values follow for various compounds
TARGET OR SYSTEM: Fructose-1,6-bisphosphatase 1 (Homo sapiens, UniProt P09467)
Sequence (P09467 whole entry): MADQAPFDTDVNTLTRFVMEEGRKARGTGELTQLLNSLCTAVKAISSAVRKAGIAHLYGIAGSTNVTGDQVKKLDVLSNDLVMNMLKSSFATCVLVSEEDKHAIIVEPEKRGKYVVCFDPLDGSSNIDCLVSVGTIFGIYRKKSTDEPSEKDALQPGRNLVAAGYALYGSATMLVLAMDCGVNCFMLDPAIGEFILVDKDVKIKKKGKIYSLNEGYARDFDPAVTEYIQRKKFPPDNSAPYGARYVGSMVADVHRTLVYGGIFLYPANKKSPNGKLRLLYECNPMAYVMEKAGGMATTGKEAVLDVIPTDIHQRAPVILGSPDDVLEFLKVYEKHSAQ
TEST METHOD NOTES: Inhibition of human liver fructose-1,6-bisphosphatase in presence of fructose-2,6-bisphosphate
pIC50: −log10 of the molar value.
MEASUREMENT LABEL: pIC50

>>> measured_value("O=C(NCCSSCCNC(=O)NS(=O)(=O)c1cccc(Cl)c1)NS(=O)(=O)c1cccc(Cl)c1")
8.00
>>> measured_value("O=C(NCCCOCCCNC(=O)NS(=O)(=O)c1cccc(Cl)c1)NS(=O)(=O)c1cccc(Cl)c1")
7.24
>>> measured_value("O=C(NCCCCCNC(=O)NS(=O)(=O)c1cccc(Cl)c1)NS(=O)(=O)c1cccc(Cl)c1")
7.72
>>> measured_value("Cc1cccc(S(=O)(=O)NC(=O)NCCCCCNC(=O)NS(=O)(=O)c2cccc(C)c2)c1")
7.66
>>> measured_value("O=C(NCCCCCCNC(=O)NS(=O)(=O)c1cccc(Cl)c1)NS(=O)(=O)c1cccc(Cl)c1")
8.10

---

TARGET OR SYSTEM: Fructose-1,6-bisphosphatase 1 (Homo sapiens, UniProt P09467)
TEST METHOD NOTES: Inhibition of human liver fructose-1,6-bisphosphatase in presence of fructose-2,6-bisphosphate
pIC50: −log10 of the molar value.
Reported pIC50 values follow for various compounds
MEASUREMENT LABEL: pIC50

>>> measured_value("Cc1cccc(S(=O)(=O)NC(=O)NCCOCCNC(=O)NS(=O)(=O)c2cccc(C)c2)c1")
6.82
>>> measured_value("Cc1cccc(S(=O)(=O)NC(=O)NCCCCCCNC(=O)NS(=O)(=O)c2cccc(C)c2)c1")
7.92
>>> measured_value("Cc1cccc(S(=O)(=O)NC(=O)NCCCCCCCCNC(=O)NS(=O)(=O)c2cccc(C)c2)c1")
8.10
>>> measured_value("O=C(NCCCCCCCNC(=O)NS(=O)(=O)c1cccc(Cl)c1)NS(=O)(=O)c1cccc(Cl)c1")
8.40
>>> measured_value("O=C(NCCCCNC(=O)NS(=O)(=O)c1cccc(Cl)c1)NS(=O)(=O)c1cccc(Cl)c1")
6.58
>>> measured_value("Cc1cccc(S(=O)(=O)NC(=O)NCCS)c1")
4.98
>>> measured_value("CCCCNC(=O)NS(=O)(=O)c1cccc(Cl)c1")
3.87
>>> measured_value("CSCCNC(=O)NS(=O)(=O)c1cccc(Cl)c1")
3.56
